Assay: CCTE_Deisenroth_AIME_384WELL_CTox_Active: Cytotoxicity Assessment (CTOX) in CCTE's 384-well Estrogen Receptor Transactivation Assay with AIME metabolic competence (metabolism positive), Deisenroth Lab (AID 2284037);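 further: chemicals first conditioned 2 h by alginate-bound induced rat liver S9 before cells; activity means signal loss indicating cell death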
Records with an inconclusive call do not appear. Activity calls are given as the source filed them. How the source made its calls: active means hit-call score of the fitted dose curve at least 0.9, where 1 is the maximum; inconclusive means response in the unintended direction; inactive means score below 0.9.
Classes used: active, inactive

INSERT INTO measurements (molecule, qualitativelabel) VALUES
  ('CC(C)(C)c1cc(Cc2cc(C(C)(C)C)c(O)c(C(C)(C)C)c2)cc(C(C)(C)C)c1O', 'inactive'),
  ('CCN=C1C=CC(=C(c2ccc(N(CC)CC)cc2)c2ccc(N(CC)CC)cc2)c2ccccc21', 'active'),
  ('CCCCOC(=O)C(C)O (stereo unspecified)', 'inactive'),
  ('N#Cc1ccccc1O', 'inactive'),
  ('CCOC(OCC)OCC', 'inactive'),
  ('CC(=O)CCC(C)C', 'inactive');

---

Experiment: CCTE_Padilla_ZF_Score.Edema: CCTE's 144 Hour Post-fertilization zebrafish Assay Score for Edema Malformation, Padilla Lab (AID 2284406)
Activity calls are given as the source filed them. How the source made its calls: active means hit-call score of the fitted dose curve at least 0.9, where 1 is the maximum; inactive means score below 0.9.
Labels: T for active, F for inactive

INSERT INTO assay_data (compound, qualitativelabel) VALUES
  ('C=C(C)C(=O)OCC(F)(F)C(F)(F)C(F)(F)C(F)F', 'F'),
  ('O=C(Cl)C(F)(F)C(F)(F)C(F)(F)C(F)(F)C(F)(F)C(F)(F)F', 'T'),
  ('NC(=O)C(F)(F)C(F)(F)C(F)(F)C(F)(F)C(N)=O', 'F'),
  ('O=C(O)CCC(F)(F)C(F)(F)C(F)(F)C(F)(F)C(F)(F)C(F)(F)C(F)(F)F', 'F'),
  ('NS(=O)(=O)C(F)(F)C(F)(F)C(F)(F)C(F)(F)C(F)(F)C(F)(F)F', 'T'),
  ('O=S(=O)(OCC(F)(F)F)C(F)(F)C(F)(F)C(F)(F)C(F)(F)F', 'T'),
  ('C=CC(=O)OCCC(F)(F)C(F)(F)C(F)(F)C(F)(F)F', 'F'),
  ('CNS(=O)(=O)C(F)(F)C(F)(F)C(F)(F)C(F)(F)C(F)(F)C(F)(F)C(F)(F)C(F)(F)F', 'T'),
  ('O=S(=O)(O)CCC(F)(F)C(F)(F)C(F)(F)C(F)(F)C(F)(F)C(F)(F)C(F)(F)C(F)(F)F', 'F'),
  ('OCC(F)(F)C(F)(F)C(F)(F)C(F)(F)C(F)(F)C(F)(F)C(F)(F)C(F)(F)CO', 'F'),
  ('NC(=O)C(F)(F)C(F)(F)C(F)(F)F', 'F'),
  ('OCCCCC(F)(F)C(F)(F)C(F)(F)C(F)(F)F', 'T'),
  ('O=S(=O)(O)CCC(F)(F)C(F)(F)C(F)(F)C(F)(F)F', 'F'),
  ('NCC(F)(F)C(F)(F)C(F)(F)C(F)(F)C(F)(F)C(F)(F)F', 'T'),
  ('C[Si](Cl)(Cl)CCC(F)(F)C(F)(F)C(F)(F)C(F)(F)C(F)(F)C(F)(F)F', 'F'),
  ('CN(C(=O)C(F)(F)C(F)(F)C(F)(F)F)[Si](C)(C)C', 'F'),
  ('CCOC(=O)CC(=O)C(F)(F)C(F)(F)F', 'F'),
  ('NC(=O)C(F)(F)C(F)(F)C(F)(F)C(F)F', 'F'),
  ('O=C(O)C(F)(F)OC(F)(F)C(F)(F)OC(F)(F)C(F)(F)OC(F)(F)F', 'F'),
  ('OCC(F)(F)C(F)(F)C(F)(F)C(F)(F)C(F)(F)C(F)(F)CO', 'T'),
  ('OCC(O)CC(F)(F)C(F)(F)C(F)(F)C(F)(F)C(F)(F)C(F)(F)C(F)(F)C(F)(F)F (centres undefined)', 'T'),
  ('COC(F)(C(F)F)C(F)(F)F (centres undefined)', 'F'),
  ('NC(=O)C(F)(F)C(F)(F)C(F)(F)C(F)(F)C(F)(F)C(F)(F)C(F)(F)F', 'F'),
  ('OCC(F)(F)C(F)(F)C(F)(F)CO', 'F'),
  ('C=CC(=O)OCC(F)(F)C(F)(F)C(F)(F)C(F)(F)C(F)(F)C(F)(F)C(F)(F)C(F)F', 'F'),
  ('FC(F)(F)C(F)(F)C(F)(F)C(F)(F)C(F)(F)C(F)(F)C(F)(F)CCI', 'F'),
  ('O=C(F)C1(F)C(F)(F)C(F)(F)C(F)(F)C(F)(F)C1(F)F', 'F'),
  ('NCC(F)(F)C(F)(F)C(F)(F)C(F)(F)C(F)(F)C(F)(F)C(F)(F)C(F)(F)F', 'F'),
  ('NC(O)(C(F)(F)F)C(F)(F)F', 'F');
